Can you tell me cAMP Rel. A (%) against human GIP, human GIP R cells for the items I'm about to list?
Target: T1, human GIP receptor (human, UniProt P48546 22-466)
T1 sequence (looked up): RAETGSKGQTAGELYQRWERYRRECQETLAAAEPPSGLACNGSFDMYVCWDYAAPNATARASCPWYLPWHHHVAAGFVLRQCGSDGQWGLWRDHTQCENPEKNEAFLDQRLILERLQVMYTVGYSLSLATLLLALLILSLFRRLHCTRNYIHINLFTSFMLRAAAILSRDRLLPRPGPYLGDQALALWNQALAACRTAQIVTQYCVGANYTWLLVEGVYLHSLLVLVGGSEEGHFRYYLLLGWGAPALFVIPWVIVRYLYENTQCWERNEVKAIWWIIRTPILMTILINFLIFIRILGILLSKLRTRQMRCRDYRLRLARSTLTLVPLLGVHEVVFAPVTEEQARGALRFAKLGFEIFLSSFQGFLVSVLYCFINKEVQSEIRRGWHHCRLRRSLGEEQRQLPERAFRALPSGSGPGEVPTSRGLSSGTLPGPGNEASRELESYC
Assay: cell-based or functional assay
Supply the numeric figure in %, leaving out any unit text.

IN: Requested field: cAMP Rel. A (%) against human GIP, human GIP R cells. Item: YXQGTXTSDYSIXLDKKAQXAFIEYLLETHPSSGAPPXS (Aib at 2; αMeF at 6; αMeL at 13; Lys 17 side chain AEEAc-AEEAc-γGlu-CO(CH2)18COOH; Aib at 20; Ac3c at 38; C-terminal amide (NH2)) [Compound 2]
OUT: 724

IN: Quick one: YXQGTXTSDYSIFLDKKAQXAFIEFLLEGGPSSGQPPPS (Aib at 2; αMeF(2F) at 6; Lys 17 side chain AEEAc-AEEAc-γGlu-CO(CH2)18COOH; Aib at 20; C-terminal amide (NH2)) [Compound 21]
OUT: 2260

IN: Another binder to look at: YXQGTXTSDYSIXLDKKAQXAFIEYLLETGPSSGQPPXS (Aib at 2; αMeF at 6; αMeL at 13; Lys 17 side chain AEEAc-AEEAc-γGlu-CO(CH2)18COOH; Aib at 20; Ac3c at 38; C-terminal amide (NH2)) [Compound 35]
OUT: 2260

IN: What do we get for YXQGTXTSDYSIFLDKKAQXAFIEYLLETGPSSGAPPPS (Aib at 2; αMeF at 6; Lys 17 side chain AEEAc-AEEAc-γGlu-CO(CH2)18COOH; Aib at 20; C-terminal amide (NH2)) [Compound 13] ?
OUT: 566

IN: One more binder: YXQGTXTSDYSIXLDKKAQXAFIEFLLESHPSSXHPPXS (Aib at 2; αMeF at 6; αMeL at 13; Lys 17 side chain AEEAc-AEEAc-γGlu-CO(CH2)18COOH; Aib at 20; Aib at 34; Ac3c at 38; C-terminal amide (NH2)) [Compound 33]
OUT: 2260

IN: Similarly, YXQGTXTSDYSIFLDKKAQXAFIEFLLEXHPSSGAPPPS (Aib at 2; αMeF at 6; Lys 17 side chain AEEAc-AEEAc-γGlu-CO(CH2)18COOH; Aib at 20; Aib at 29; C-terminal amide (NH2)) [Compound 16] ?
OUT: 335
